# System: SNB-19
# method: NCI tumour cell line growth inhibition, 48 h
Activity calls are given as the source filed them. Rule as the data show it: active = GI50 up to about 1.1 µM and inactive = higher.
Return exactly one item of label 1 = active, label 0 = inactive

N#C/N=C(/NCCc1c[nH]c2ccccc12)Oc1ccccc1 ... label 0

Consider now this further compound.
Prompt: For this compound, state the assay outcome: `COC(=O)N1CCc2c(nc(N(C)CCO)[nH]c2=O)C1`
Response: label 0

----------
# Test system: ACHN
# method: NCI tumour cell line growth inhibition, 48 h
Activity calls are given as the source filed them. No stated cut-off is given here; in the data, active = GI50 up to about 1.1 µM and inactive = higher.
# GI50 values compiled below

COc1nc(OC)c2c(=O)oc(-c3ccccc3)cc2n1 ... > 100 µM (inactive)

Then there is this molecule:
Prompt: Please tell me: GI50 of `O=C1c2ccoc2C(=O)c2oc(=O)ccc21` , system ACHN?
Response: 2.86 µM (inactive)

----------
# System: NCI-H522
# method: NCI tumour cell line growth inhibition, 48 h
Active and inactive are the calls of the source. Cut-off read from the data, not from the text of the source: active = GI50 up to about 1.1 µM and inactive = higher.
outcome.measure: GI50

Completed entries (count: 2):
CC(=O)Nc1ccc2c(C)c3c4ccccc4n(C)c3nc2n1 ... 16.1 µM (inactive)
O=C1NC(N2CCOCC2)=N/C1=C\c1ccc(O)cc1 ... 16.4 µM (inactive)

Prompt: Tell me the measured GI50 of CC1OC(OC2C(O[C@H]3CC[C@@]4(C)C(=CC[C@H]5[C@@H]6C[C@@H]7O[C@]8(CC[C@@H](C)CO8)[C@@H](C)[C@@H]7[C@@]6(C)CC[C@@H]54)C3)OC(CO)C(O)C2OC2OC(CO)C(O)C(O)C2O)C(O)C(O)C1O (some centres undefined) , please.
Response: 1.86 µM (inactive)

Prompt: Tell me the measured GI50 of Cc1ccc([S+](c2ccccc2)c2cc(C)ccc2C)cc1 (centres undefined) , please.
Response: 3.13 µM (inactive)

----------
# GI50 values compiled below
# Test system: MDA-N
# method: NCI tumour cell line growth inhibition, 48 h
Calls of active or inactive are those of the source. No stated cut-off is given here; in the data, active = GI50 up to about 1.1 µM and inactive = higher.

Completed entries (count: 5):
CCCCCCc1cc2cc(C(=O)Nc3ccc(F)cc3)c(=N)oc2cc1O ... 3.57 µM (inactive)
O=c1c2ccccc2c2ccccc2c(=O)n1-c1cc2c3ccccc3ccc2c2ccccc12 ... > 100 µM (inactive)
C=CCn1c(S)nnc1C12CC3CC(CC(C3)C1)C2 ... 45.4 µM (inactive)
N#CC1(C#N)C2(c3ccccc3)OC(c3ccccc3)(c3cc4ccccc4cc32)C1(C#N)C#N ... 16.9 µM (inactive)
C/C(=C/CC[C@](C)(OC1OC(CO)C(O)C(O)C1OC1OC(C)C(O)C(O)C1O)[C@H]1CC[C@]2(C)[C@@H]1CC[C@@H]1[C@@]3(C)CC[C@H](O)C(C)(C)[C@@H]3C[C@H](O)[C@]12C)CO (stereo partly specified) ... > 100 µM (inactive)

Prompt: Tell me the measured GI50 of CCOP(=O)(OCC)C(Nc1cccc([N+](=O)[O-])c1)c1ccccc1 (stereo unspecified) , please.
Response: > 100 µM (inactive)

Prompt: Tell me the measured GI50 of N#CC1CNC(N)NC1N (stereo unspecified) , please.
Response: > 100 µM (inactive)

Prompt: Tell me the measured GI50 of `CSc1nc(C#N)c(N)n1C` , please.
Response: > 100 µM (inactive)

Prompt: Tell me the measured GI50 of `O=C(O)/C=C\C(=O)Nc1ccccn1` , please.
Response: > 100 µM (inactive)

Prompt: Tell me the measured GI50 of `CCO[C@]12CCC[C@H]1[C@@H]1C(=O)c3ccccc3C(=O)C1=C(C)O2` , please.
Response: 19.5 µM (inactive)

Prompt: Tell me the measured GI50 of `O=c1[nH]c(=O)n(COCc2ccccc2)c2ccccc12` , please.
Response: 83 µM (inactive)
